SYSTEM_NAME: T1, rat amylin 3(a) receptor (rat calcitonin(a) receptor + rat RAMP3) (rat, UniProt P32214 25-516; Q9JJ73 23-147)
T1 sequence (looked up) 1: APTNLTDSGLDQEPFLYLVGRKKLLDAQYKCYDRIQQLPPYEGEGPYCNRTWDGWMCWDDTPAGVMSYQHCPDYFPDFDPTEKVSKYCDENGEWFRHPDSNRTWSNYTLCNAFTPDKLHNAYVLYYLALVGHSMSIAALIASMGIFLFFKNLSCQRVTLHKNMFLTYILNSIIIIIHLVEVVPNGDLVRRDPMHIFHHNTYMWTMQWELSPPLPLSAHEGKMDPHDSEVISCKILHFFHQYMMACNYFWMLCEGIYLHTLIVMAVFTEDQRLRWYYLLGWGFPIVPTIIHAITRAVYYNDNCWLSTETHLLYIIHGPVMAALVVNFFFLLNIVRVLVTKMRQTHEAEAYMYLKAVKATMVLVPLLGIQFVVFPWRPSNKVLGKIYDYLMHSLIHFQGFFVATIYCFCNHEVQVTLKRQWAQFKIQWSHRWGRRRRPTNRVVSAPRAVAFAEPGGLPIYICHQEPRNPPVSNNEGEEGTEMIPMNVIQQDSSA
T1 sequence (looked up) 2: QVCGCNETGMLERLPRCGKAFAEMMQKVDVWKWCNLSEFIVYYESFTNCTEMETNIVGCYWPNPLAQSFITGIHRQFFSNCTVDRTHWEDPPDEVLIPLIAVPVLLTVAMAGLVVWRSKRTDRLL
EXPERIMENT: cell-based or functional assay
Starred links: 1 amine or outer side, 2 acyl side, 3 side chain; linkers in the order of their positions; H or OH if unused. Positions of bridges follow the written chain, without caps; N, C: chain ends. Non-standard residues stand in square brackets, D forms with d. Primed or numbered codes have the meaning given here. *: point of attachment. C18 diacid′ = 17-carboxyheptadecanoyl on γGlu amine: (S)-4-carboxy-4-(17-carboxyheptadecanoylamino)butyryl; C20 diacid = O=C(O)CCCCCCCCCCCCCCCCCCC(=O)*; 19‑carboxyheptadecanoyl = not defined here; γGlu = O=C(O)[C@H](CCC(=O)[*:2])N[*:1]; AEEA = NCCOCCOCC(=O)O
Reported Amylin receptor rat EC50 is given for each of the following binders.
Give a bare numeral; the unit nM is implied.

{19‑carboxyheptadecanoyl-γGlu-AEEA-AEEA}-[dR][dR]KCNTATCATQRLAEFLHRSSANFGPILPPTNVGSSTY-NH2 (disulfide 4-9; reading uncertain; also: printed as N-alpha-[2-(2-{2-[2-(2-{2-[(S)-4-Carboxy-4-(19-carboxyheptadecanoylamino)butyrylamino]ethoxy}ethoxy)acetylamino]ethoxy}ethoxy)acetyl]-D-Arg-D-Arg-[Glu14,His17,Arg18,Ala21,Ser35]-pramlintide): 0.233
{C18 diacid′-γGlu}-EKCNTATCATQRLAEFLRHSSNNFGPILPPTNVGSHTY-NH2 (disulfide 3-8) [N-alpha-[(S)-4-Carboxy-4-(17-carboxyheptadecanoylamino)butyryl]-Glu-[Glu14,Arg17,His35]-pramlintide]: 0.281

// below: Amylin receptor rat EC50 requested for another binder
Form: binder = {C20 diacid-γGlu}-HCNTATCATQRLAEFLHHSSNNFGPILPPTNVGSNTY-NH2 (disulfide 2-7; not fully specified; printed as N-alpha-[(S)-4-Carboxy-4-(19-carboxynonadecanoylamino)butyryl]-[His1,Glu14,His17]-pramlintide) [N-alpha-[(S)-4-Carboxy-4-(19-carboxynonadecanoylamino)butyryl]-[His1,Glu14,His17]-pramlintide] ; Amylin receptor rat EC50 = 0.187
